List of pIC50 values.
Tested on: SMMC-7721
Assay: Cytotoxicity against human SMMC7721 cells assessed as inhibition of cell growth after 48 hrs by MTT assay
Type: functional, cell-based
Conditions: SMMC-7721, 48 h
pIC50: −log10 of the molar value.

Short answer for COc1ccc2c3ccnc(C)c3n(C(C)=O)c2c1 : pIC50 was < 4.30

Short answer for COc1ccc2c3ccnc(C)c3n(S(=O)(=O)c3ccccc3)c2c1 : pIC50 was < 4.30

Short answer for COc1ccc2c3ccnc(C)c3n(C(=O)c3ccccc3)c2c1 : pIC50 was < 4.30

Short answer for COc1ccc2c3ccnc(C)c3n(Cc3ccc(F)cc3)c2c1 : pIC50 was < 4.30

Short answer for COc1ccc2c3ccnc(C)c3n(CCCCCCBr)c2c1 : pIC50 was 5.42

Short answer for COc1ccc2c3ccnc(C)c3n(CCCCCBr)c2c1 : pIC50 was 5.19

Short answer for COc1ccc2c3ccnc(C)c3n(C(=O)c3ccc(C)cc3)c2c1 : pIC50 was < 4.30

Short answer for CCCCn1c2cc(OC)ccc2c2ccnc(C)c21 : pIC50 was 4.54
